Just for reference, patent US20060079453A1 is where these values come from.

# Tested system: HLA-A*2902 (human)
# Experimental details: competition, purified HLA
Property measured: pIC50
For clarity, pIC50 is expressed as the negative log10 of concentration in mol/L.

Record excerpt, results attached:
Binder | pIC50
RSDSVGPGPGY (modifications not checked) | 4.51
RWGLLLALL (modifications not checked) | 4.21
TQDGPGPGY (modifications not checked) | 4.43

In the following, a different binder is considered.
Ask: Would you kindly share the measured pIC50 for RSDGPGPGVLY (modifications not checked) ?
Reply: 4.88
